# target entity: ASK1 T838 auto phosphorylation (Homo sapiens, UniProt Q99683)
# Construct: ASK1-V5 tagged full length plasmid; expressed in transfected cells; host or cells: HEK-293T
# protocol notes: ASK1 (AUTO PHOS T838) assay in HEK-293T cells, MSD format
# Type: cell-based
# test context: HEK-293T cells transfected with ASK1-V5, 1 hr compound incubation; class symbols
Exercise: state measured IC50 for each of the compounds provided.

[ask] Can you look up the measured IC50 of C[C@H]1CCCOc2ncc(C#CC3CC3)cc2C(=O)Nc2cccc(n2)-c2nncn21 for me?
[reply] 100 to 1000 nM

[ask] Can you look up the measured IC50 of C[C@H]1CCCOc2ncc(C3COC3)cc2C(=O)Nc2cccc(n2)-c2nncn21 for me?
[reply] ≤ 100 nM

[ask] Can you look up the measured IC50 of Cc1cn(-c2cnc3c(c2)C(=O)Nc2cccc(n2)-c2nncn2[C@@H](C)CCCO3)cn1 (single isomer, unassigned) for me?
[reply] ≤ 100 nM

[ask] Can you look up the measured IC50 of C#Cc1cnc2c(c1)C(=O)Nc1cccc(n1)-c1nncn1[C@@H](C)CCCO2 for me?
[reply] 100 to 1000 nM

====

# target entity: ASK1/MAP3K5 (Homo sapiens)
# Construct: purchased Reaction Biology Corp. (Malvern, Pa.)
# Sequence (Q99683 1-1374): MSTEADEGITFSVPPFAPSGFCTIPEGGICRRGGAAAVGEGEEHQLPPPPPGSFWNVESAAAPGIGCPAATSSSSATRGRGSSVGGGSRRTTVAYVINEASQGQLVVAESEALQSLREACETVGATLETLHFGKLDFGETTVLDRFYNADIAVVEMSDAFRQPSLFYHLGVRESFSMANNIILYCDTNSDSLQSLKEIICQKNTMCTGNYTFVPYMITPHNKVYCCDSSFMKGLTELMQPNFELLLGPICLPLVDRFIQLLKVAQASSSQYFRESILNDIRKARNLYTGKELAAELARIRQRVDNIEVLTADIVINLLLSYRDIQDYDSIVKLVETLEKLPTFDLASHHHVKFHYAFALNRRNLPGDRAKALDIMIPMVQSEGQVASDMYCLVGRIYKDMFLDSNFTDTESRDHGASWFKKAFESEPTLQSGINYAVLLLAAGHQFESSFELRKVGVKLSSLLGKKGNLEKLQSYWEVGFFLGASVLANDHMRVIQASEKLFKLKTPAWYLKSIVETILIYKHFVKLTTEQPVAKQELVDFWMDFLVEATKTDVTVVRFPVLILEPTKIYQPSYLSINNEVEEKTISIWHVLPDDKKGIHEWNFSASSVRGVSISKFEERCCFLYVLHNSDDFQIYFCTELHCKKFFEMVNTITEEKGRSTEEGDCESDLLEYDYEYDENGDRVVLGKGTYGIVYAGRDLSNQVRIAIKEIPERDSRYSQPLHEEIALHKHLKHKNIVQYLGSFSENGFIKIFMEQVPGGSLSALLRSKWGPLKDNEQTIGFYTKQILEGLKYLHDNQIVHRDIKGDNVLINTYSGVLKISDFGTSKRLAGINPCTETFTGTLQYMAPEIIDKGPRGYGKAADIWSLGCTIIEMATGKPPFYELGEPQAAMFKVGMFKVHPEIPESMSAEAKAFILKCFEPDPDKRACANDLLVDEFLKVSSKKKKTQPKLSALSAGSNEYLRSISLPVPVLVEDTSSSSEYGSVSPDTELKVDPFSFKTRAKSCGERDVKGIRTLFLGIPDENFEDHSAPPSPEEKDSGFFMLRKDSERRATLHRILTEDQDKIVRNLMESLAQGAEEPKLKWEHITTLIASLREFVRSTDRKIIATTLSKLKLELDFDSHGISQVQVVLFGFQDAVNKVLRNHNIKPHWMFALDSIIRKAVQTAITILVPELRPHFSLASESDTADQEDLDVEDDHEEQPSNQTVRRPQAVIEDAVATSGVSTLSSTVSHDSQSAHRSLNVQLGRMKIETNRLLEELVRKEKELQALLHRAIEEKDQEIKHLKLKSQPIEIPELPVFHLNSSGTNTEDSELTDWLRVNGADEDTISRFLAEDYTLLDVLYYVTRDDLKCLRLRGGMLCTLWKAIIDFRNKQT
# protocol notes: ASK1 enzyme assay (ASK1/MAP3K5 assay by Reaction Biology Corp., 33P-ATP filter-binding)
# Type: biochemical
# test context: 20 μM myelin basic protein and 10 μM ATP; class symbols
Exercise: state measured IC50 for each of the compounds provided.

[ask] Can you look up the measured IC50 of C[C@H]1CCCOc2ncc(C3=CCN(C)CC3)cc2C(=O)Nc2cccc(n2)-c2nncn21 for me?
[reply] ≤ 100 nM

[ask] Can you look up the measured IC50 of C[C@H]1CCCOc2ncc(C(F)(F)F)cc2C(=O)Nc2cccc(n2)-c2nncn21 (single isomer, unassigned) for me?
[reply] ≤ 100 nM

[ask] Can you look up the measured IC50 of C[C@@H]1CCCOc2ncc(C#N)cc2C(=O)Nc2cccc(n2)-c2nncn21 for me?
[reply] 1000 to 10000 nM

[ask] Can you look up the measured IC50 of C[C@H]1CCCOc2ncc(-c3cncn3C)cc2C(=O)Nc2cccc(n2)-c2nncn21 for me?
[reply] ≤ 100 nM

[ask] Can you look up the measured IC50 of C[C@@H]1CN(c2cnc3c(c2)C(=O)Nc2cccc(n2)-c2nncn2[C@@H](C)CCCO3)CCN1C (single isomer, unassigned) for me?
[reply] ≤ 100 nM

[ask] Can you look up the measured IC50 of C[C@H]1CCCOc2ncc(C#N)cc2C(=O)Nc2cccc(n2)-c2nncn21 for me?
[reply] ≤ 100 nM

[ask] Can you look up the measured IC50 of C[C@@H]1CCCOc2ncc(Br)cc2C(=O)Nc2cccc(n2)-c2nncn21 (single isomer, unassigned) for me?
[reply] 1000 to 10000 nM

====

Exercise: state measured IC50 for each of the compounds provided.
# target entity: ASK1 T838 auto phosphorylation (Homo sapiens, UniProt Q99683)
# Construct: ASK1-V5 tagged full length plasmid; expressed in transfected cells; host or cells: HEK-293T
# protocol notes: ASK1 (AUTO PHOS T838) assay in HEK-293T cells, MSD format
# Type: cell-based
# test context: HEK-293T cells transfected with ASK1-V5, 1 hr compound incubation; class symbols

[ask] Can you look up the measured IC50 of C[C@H]1CCCOc2ncc(C#N)cc2C(=O)Nc2cccc(n2)-c2nncn21 [Compound 38] for me?
[reply] 100 to 1000 nM

[ask] Can you look up the measured IC50 of C[C@@H]1CN(c2cnc3c(c2)C(=O)Nc2cccc(n2)-c2nncn2[C@@H](C)CCCO3)CCN1C (single isomer, unassigned) [Compound 12] for me?
[reply] ≤ 100 nM

[ask] Can you look up the measured IC50 of C[C@H]1CCCOc2ncc(-c3ccncc3)cc2C(=O)Nc2cccc(n2)-c2nncn21 [Compound 17] for me?
[reply] ≤ 100 nM

[ask] Can you look up the measured IC50 of Cc1cncn1-c1cnc2c(c1)C(=O)Nc1cccc(n1)-c1nncn1[C@@H](C)CCCO2 (single isomer, unassigned) [Compound 31] for me?
[reply] 100 to 1000 nM

====

# target entity: ASK1 T838 auto phosphorylation (Homo sapiens, UniProt Q99683)
# Construct: ASK1-V5 tagged full length plasmid; expressed in transfected cells; host or cells: HEK-293T
# protocol notes: ASK1 (AUTO PHOS T838) assay in HEK-293T cells, MSD format
# Type: cell-based
# test context: HEK-293T cells transfected with ASK1-V5, 1 hr compound incubation; class symbols
metric: IC50

[ask] Can you look up the measured IC50 of C[C@H]1CCCOc2ncc(C3=CCN(C)CC3)cc2C(=O)Nc2cccc(n2)-c2nncn21 for me?
[reply] ≤ 100 nM

[ask] Can you look up the measured IC50 of C[C@H]1CCCOc2ncc(C3CN(C)C3)cc2C(=O)Nc2cccc(n2)-c2nncn21 for me?
[reply] 100 to 1000 nM

[ask] Can you look up the measured IC50 of Cc1cnn(-c2cnc3c(c2)C(=O)Nc2cccc(n2)-c2nncn2[C@@H](C)CCCO3)c1 for me?
[reply] 100 to 1000 nM

[ask] Can you look up the measured IC50 of C[C@H]1CCCOc2ncc(-n3cnc(C4CC4)c3)cc2C(=O)Nc2cccc(n2)-c2nncn21 (single isomer, unassigned) for me?
[reply] ≤ 100 nM

====

# target entity: ASK1 T838 auto phosphorylation (Homo sapiens)
# Construct: ASK1-V5 tagged full length plasmid; expressed in transfected cells; host or cells: HEK-293T
# protocol notes: ASK1 (AUTO PHOS T838) assay in HEK-293T cells, MSD format
# Format: cell-based
# test context: HEK-293T cells transfected with ASK1-V5, 1 hr compound incubation; class symbols
metric: IC50

[ask] Can you look up the measured IC50 of C[C@H]1CCCOc2ncc(N3CC4CC(C3)O4)cc2C(=O)Nc2cccc(n2)-c2nncn21 for me?
[reply] ≤ 0.1 µM

[ask] Can you look up the measured IC50 of C[C@@H]1CN(c2cnc3c(c2)C(=O)Nc2cccc(n2)-c2nncn2[C@@H](C)CCCO3)C[C@@H](C)N1 for me?
[reply] 0.1 to 1 µM

[ask] Can you look up the measured IC50 of C[C@H]1CCCOc2ncc(-c3cnccn3)cc2C(=O)Nc2cccc(n2)-c2nncn21 for me?
[reply] ≤ 0.1 µM

[ask] Can you look up the measured IC50 of C[C@H]1CCCOc2ncc(-c3cncn3C)cc2C(=O)Nc2cccc(n2)-c2nncn21 for me?
[reply] ≤ 0.1 µM

[ask] Can you look up the measured IC50 of COC(C)(C)c1cnc2c(c1)C(=O)Nc1cccc(n1)-c1nncn1[C@@H](C)CCCO2 for me?
[reply] 0.1 to 1 µM

[ask] Can you look up the measured IC50 of C[C@H]1CCCOc2ncc(C3CN(C(=O)OC(C)(C)C)C3)cc2C(=O)Nc2cccc(n2)-c2nncn21 for me?
[reply] ≤ 0.1 µM

[ask] Can you look up the measured IC50 of C[C@H]1CCCOc2ncc(-n3cncc3C3CC3)cc2C(=O)Nc2cccc(n2)-c2nncn21 (single isomer, unassigned) for me?
[reply] 0.1 to 1 µM

[ask] Can you look up the measured IC50 of C[C@@H]1CCCOc2ncc(N3CCOCC3)cc2C(=O)Nc2cccc(n2)-c2nncn21 for me?
[reply] 1 to 10 µM

[ask] Can you look up the measured IC50 of C[C@H]1CCCOc2ncc(N3CCOCC3)cc2C(=O)Nc2cccc(n2)-c2nncn21 for me?
[reply] ≤ 0.1 µM

[ask] Can you look up the measured IC50 of C[C@H]1CCCOc2ncccc2C(=O)Nc2cccc(n2)-c2nncn21 (single isomer, unassigned) for me?
[reply] 0.1 to 1 µM

[ask] Can you look up the measured IC50 of C[C@@H]1CCCOc2ncc(-c3cnn(CCN(C)C)c3)cc2C(=O)Nc2cccc(n2)-c2nncn21 for me?
[reply] 1 to 10 µM

[ask] Can you look up the measured IC50 of C[C@H]1CCCOc2ncc(C(F)(F)F)cc2C(=O)Nc2cccc(n2)-c2nncn21 (single isomer, unassigned) for me?
[reply] 0.1 to 1 µM

[ask] Can you look up the measured IC50 of C[C@H]1CCCOc2ncc(C3CC3)cc2C(=O)Nc2cccc(n2)-c2nncn21 for me?
[reply] 0.1 to 1 µM

[ask] Can you look up the measured IC50 of C[C@H]1CCCOc2ncc(OCCN(C)C)cc2C(=O)Nc2cccc(n2)-c2nncn21 for me?
[reply] ≤ 0.1 µM

[ask] Can you look up the measured IC50 of C[C@H]1CCCOc2ncc(N3CCN(C)CC3)cc2C(=O)Nc2cccc(n2)-c2nncn21 for me?
[reply] ≤ 0.1 µM

[ask] Can you look up the measured IC50 of C[C@H]1CCCOc2ncc(N3CC(F)(F)C3)cc2C(=O)Nc2cccc(n2)-c2nncn21 for me?
[reply] ≤ 0.1 µM

[ask] Can you look up the measured IC50 of C[C@@H]1CCCOc2ncc(-c3ccncc3)cc2C(=O)Nc2cccc(n2)-c2nncn21 for me?
[reply] 1 to 10 µM

[ask] Can you look up the measured IC50 of C[C@H]1CCCOc2ncc(C(C)(C)O)cc2C(=O)Nc2cccc(n2)-c2nncn21 for me?
[reply] 0.1 to 1 µM

[ask] Can you look up the measured IC50 of COc1ccc(-c2cnc3c(c2)C(=O)Nc2cccc(n2)-c2nncn2[C@@H](C)CCCO3)cn1 for me?
[reply] ≤ 0.1 µM

[ask] Can you look up the measured IC50 of C[C@H]1CCCOc2ncc(C3CCN(C)CC3)cc2C(=O)Nc2cccc(n2)-c2nncn21 for me?
[reply] ≤ 0.1 µM

[ask] Can you look up the measured IC50 of C[C@H]1CCCOc2ncc(-c3cnn(C)c3)cc2C(=O)Nc2cccc(n2)-c2nncn21 for me?
[reply] ≤ 0.1 µM

[ask] Can you look up the measured IC50 of C[C@@H]1CN(c2cnc3c(c2)C(=O)Nc2cccc(n2)-c2nncn2[C@@H](C)CCCO3)C[C@H](C)N1 for me?
[reply] ≤ 0.1 µM

[ask] Can you look up the measured IC50 of Cc1ccc(-c2cnc3c(c2)C(=O)Nc2cccc(n2)-c2nncn2[C@@H](C)CCCO3)cn1 for me?
[reply] ≤ 0.1 µM
